assay: Approximate solubility by solvent addition technique; format: physicochemical; conditions: methanol, 20 °C, organic solvent or mixture, thermodynamic from solid, heating to 40° C. between solvent aliquots
Recorded metric: solubility

If you can, please state the reported solubility value of COCCOc1cccc([C@@H]2CCN(CCn3cccc3)[C@H](C)[C@H]2COc2ccc3c(c2)C(=O)NC3)c1 [free base] .
> 200 mg/mL

###

assay: Approximate solubility by solvent addition technique; assay type: physicochemical; conditions: ethanol, 20 °C, organic solvent or mixture, thermodynamic from solid, heating to 40° C. between solvent aliquots
Recorded metric: solubility

For the compound COCCOc1cccc([C@@H]2CCN(CCn3cccc3)[C@H](C)[C@H]2COc2ccc3c(c2)C(=O)NC3)c1 [free base] , what solubility is on record?
> 200 mg/mL
